Target Or System: 5-lipoxygenase (Homo sapiens)
Construct: Human PMN's (5 x 10⁶ cells/0.5 mL) in pH 7.2 phosphate buffer; endogenous in cells; host or cells: human polymorphonuclear leukocytes (PMN)
Sequence (P09917 whole entry): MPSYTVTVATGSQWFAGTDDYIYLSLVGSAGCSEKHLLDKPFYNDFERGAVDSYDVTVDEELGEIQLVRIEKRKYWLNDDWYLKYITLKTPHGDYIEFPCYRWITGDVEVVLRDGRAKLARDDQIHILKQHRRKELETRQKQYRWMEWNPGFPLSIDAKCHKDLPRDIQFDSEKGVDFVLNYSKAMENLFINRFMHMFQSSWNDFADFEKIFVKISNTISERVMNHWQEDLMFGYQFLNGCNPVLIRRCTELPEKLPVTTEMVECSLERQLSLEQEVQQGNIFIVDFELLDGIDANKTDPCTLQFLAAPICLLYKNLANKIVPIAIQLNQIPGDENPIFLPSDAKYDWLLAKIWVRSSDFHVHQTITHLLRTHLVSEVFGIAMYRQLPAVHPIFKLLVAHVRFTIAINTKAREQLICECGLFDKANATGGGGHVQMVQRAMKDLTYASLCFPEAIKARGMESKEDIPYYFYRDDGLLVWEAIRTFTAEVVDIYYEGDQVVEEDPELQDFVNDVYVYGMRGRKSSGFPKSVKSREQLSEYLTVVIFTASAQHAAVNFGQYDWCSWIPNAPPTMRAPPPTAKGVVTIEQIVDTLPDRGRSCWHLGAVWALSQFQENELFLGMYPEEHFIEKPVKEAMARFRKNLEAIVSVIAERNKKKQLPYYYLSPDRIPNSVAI
Assay Remarks: Inhibition of 5-lipoxygenase (5-HETE biosynthesis) in human polymorphonuclear leukocytes
Assay type: cell-based
Details: human PMN's, 5-HETE band vs control; test concentration 1 microM; read-out: Inhibition of 5-LO % at 1 M
Recorded inhibition at 1 µM, one value per entry.
Numeric only. Scale: %

Reference set, count: 5
COc1cc(C=Cc2cccs2)cc(F)c1O; 65
COc1cc(C=Cc2ccsc2)cc(F)c1O; 59
C=CCc1cc(C=Cc2ccsc2)cc(C)c1O; 75
CCCc1cc(C=Cc2cccs2)cc(OC)c1O; 76
COc1ccc(C=Cc2cc(F)c(O)c(OC)c2)cc1; 63

Req: Using 5-lipoxygenase (Homo sapiens) as the test system, report measured inhibition at 1 µM of `Cc1cc(C=Cc2cccs2)cc(Cl)c1O` .
Resp: 84

Req: Using 5-lipoxygenase (Homo sapiens) as the test system, report measured inhibition at 1 µM of `CCc1cc(C=Cc2ccsc2)cc(CC)c1O` .
Resp: 66

Req: Using 5-lipoxygenase (Homo sapiens) as the test system, report measured inhibition at 1 µM of `CC(C)c1cc(C=Cc2cccnc2)cc(C(C)C)c1O` .
Resp: 73

Req: Using 5-lipoxygenase (Homo sapiens) as the test system, report measured inhibition at 1 µM of `Cc1cc(C=Cc2ccsc2)cc(C)c1O` .
Resp: 84

Req: Using 5-lipoxygenase (Homo sapiens) as the test system, report measured inhibition at 1 µM of `Cc1cc(C=Cc2cccs2)cc(C)c1O` .
Resp: 91

Req: Using 5-lipoxygenase (Homo sapiens) as the test system, report measured inhibition at 1 µM of `Cc1cc(C=Cc2cccnc2)cc(C)c1O` .
Resp: 62
